Listing of entries alongside the reported IC50.
test system: YAP/TAZ-TEAD transcription; assay: Reporter gene assay for measuring the inhibition of YAP/TAZ-TEAD transcription (TEAD-responsive element luciferase reporter in Hek293T cells); format: cell-based; settings: Homo sapiens, HEK-293T, 24 h, 24 hours incubation

C=CC(=O)N1CC2CN(c3ccc(C(F)(F)F)cc3)c3ccccc3N2CC1C(=O)O (stereo not shown) = < 1000 nM
C=CC(=O)NC[C@@H]1CN(c2ccc(C(F)(F)F)cc2)c2cccnc2N1 = < 1000 nM
O=C(O)C1CCN2c3ncc(Cl)cc3N(c3ccc(C(F)(F)F)cc3)CC2C1 (stereo not shown) [100A] = < 1000 nM

Q: # query: IC50 of entry FC(F)(F)c1ccc(N2CCN(Cc3cccnc3)c3ccccc32)cc1
Result: 1000 to 10000 nM

Q: Try the compound C=CC(=O)NCC1CN(c2ccc(C(F)(F)F)cc2)c2ccccc2O1 (stereo not shown)
Result: < 1000 nM

Q: Try the compound C=CC(=O)N1CCN2c3ccccc3N(c3ccc(C(F)(F)F)cc3)CC2C1 (stereo not shown)
Result: < 1000 nM
